Tested on: RARb:RXRa (NR concentration 270 nM, RXRa partner concentration 90 nM)
procedureDetails: PBM binding z-score (relative to random genomic background probes); higher = stronger binding; sequences stand for … in GC…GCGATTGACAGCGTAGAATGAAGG
Each entry below carries its reported PBM binding z-score.

| constructSequence | PBM binding z-score |
| --- | --- |
| TCTTGTAGATCAGCAGTTTAAGAAAGCTGGCCAA | -0.0976 |
| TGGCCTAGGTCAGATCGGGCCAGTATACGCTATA | 2.85 |
| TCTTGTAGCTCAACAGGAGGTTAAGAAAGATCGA | -0.0252 |
| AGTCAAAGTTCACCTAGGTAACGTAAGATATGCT | 4.99 |
| CGTCAAAGTTCAAGGTAACGCAACAGAAAGCAGC | 5.15 |
| GGAGCGAGGGCAAAGTTGATAGCATCTGTCGACG | 2.14 |
| AGTCAAAGTTCAGGACTAGGTAACGTAAAGCACG | 4.13 |
| ACTTACGGGTCAACGTGGTTATAGCACGCGTATA | 4.02 |
| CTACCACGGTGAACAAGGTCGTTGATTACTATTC | 0.76 |
| TCTCTTAGTTGATTAGGGCAACCGAAACAGCGGA | 1.51 |
| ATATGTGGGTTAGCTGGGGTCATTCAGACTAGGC | 2.96 |
| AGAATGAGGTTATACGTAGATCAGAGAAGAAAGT | 1.38 |

###

Each entry below carries its reported PBM binding z-score.
Test system: THRa homodimer (NR concentration 90 nM)
procedureDetails: PBM binding z-score (relative to random genomic background probes); higher = stronger binding; sequences stand for … in GC…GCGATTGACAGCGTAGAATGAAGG
measurementType: PBM binding z-score

| constructSequence | resultValue |
| --- | --- |
| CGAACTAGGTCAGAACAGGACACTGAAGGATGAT | 0.473 |
| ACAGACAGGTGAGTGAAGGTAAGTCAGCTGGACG | -0.473 |
| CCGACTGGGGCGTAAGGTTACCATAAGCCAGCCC | 0.973 |
| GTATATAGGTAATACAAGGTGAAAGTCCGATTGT | 1.48 |
| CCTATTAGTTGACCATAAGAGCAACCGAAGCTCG | 0.721 |
| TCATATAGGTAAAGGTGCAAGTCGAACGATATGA | -0.746 |
| TCGAGTAGGTTAGGGGCATTCATAATGGCGTCGA | 0.251 |
| TCTTGTAGATCAACAGGAGGTTAAGTAAGATCGA | -0.391 |
| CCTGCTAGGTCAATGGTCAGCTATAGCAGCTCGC | 0.61 |
| AGAATGAGGTTAGGATCAGGGAAACAGAATACAT | 0.948 |
| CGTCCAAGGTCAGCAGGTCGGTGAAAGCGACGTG | 1.92 |
| ACAGACCGGTGATGAAGGTAACTCAGGCTATCAT | -0.0295 |

###

Each entry below carries its reported PBM binding z-score.
Test system: PPARg:RXRa DBDmut IVT, anti-RXR (DBD mutation: RXRa K156A/R161A, NR concentration 270 nM, RXRa partner concentration 90 nM)
procedureDetails: PBM binding z-score (relative to random genomic background probes); higher = stronger binding; sequences stand for … in GC…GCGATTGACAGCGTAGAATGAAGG
measurementType: PBM binding z-score

| constructSequence | measurementType | resultValue |
| --- | --- | --- |
| AATAGCAGGCCAAGGGTCACTCAAGATTAGTCCG | PBM binding z-score | 2.14 |
| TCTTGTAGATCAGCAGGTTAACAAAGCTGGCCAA | PBM binding z-score | 1.62 |
| TCGAGTAGGTTAGGGGCATTCACAATGGCGTCGA | PBM binding z-score | 2.39 |
| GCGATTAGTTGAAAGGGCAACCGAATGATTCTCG | PBM binding z-score | 0.242 |
| CTCGAAAGGTCGTGTTCAGGTGAGTATACCAAAC | PBM binding z-score | 0.51 |
| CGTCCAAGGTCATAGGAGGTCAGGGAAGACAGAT | PBM binding z-score | 3.02 |
| CCTATTAGTCGACCATAAGGGCAACCGAAGCTCG | PBM binding z-score | 0.311 |
| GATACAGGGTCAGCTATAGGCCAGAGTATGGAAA | PBM binding z-score | 1.05 |
| ACAGACAGGCGAGTGAAGGTAACTCAGCTGGACG | PBM binding z-score | -0.427 |
| TGGAGTAGGTTAGTCGGGGCATTCAGCCAACATA | PBM binding z-score | 3.42 |
| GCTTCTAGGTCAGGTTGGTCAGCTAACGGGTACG | PBM binding z-score | 6.57 |
| TCAGACAGGTGAAGGTATCTCAGGTACGCAGTCG | PBM binding z-score | 2.51 |

###

Tested on: RXRa homodimer (NR concentration 180 nM)
procedureDetails: PBM binding z-score (relative to random genomic background probes); higher = stronger binding; sequences stand for … in GC…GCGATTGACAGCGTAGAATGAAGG
measurementType: PBM binding z-score

| constructSequence | measurementType | resultValue |
| --- | --- | --- |
| CGAACCAGGTCAGAACAGGACAGTGAAGGATGAT | PBM binding z-score | 2.06 |
| CCTAACAGGCCAGGGTCACTCAAGCATTTCGCTT | PBM binding z-score | 3.37 |
| CCAGACAGGTAAGAAGGTAACTCAGCCTCGATTA | PBM binding z-score | 0.0209 |
| TCTGTTAGTTGATTAGGGCAACCGAAACAGCGGA | PBM binding z-score | 0.318 |
| CTACCAAGGTGAACAAGGTTGTTGATTACTATTC | PBM binding z-score | 0.747 |
| ACTAGTTGGTCAGCTGCGGTCACACACAATTCGG | PBM binding z-score | 0.636 |
| AGTCAAAGTTCATCTAGGTTACGTAAGATATGCT | PBM binding z-score | 5.4 |
| GCTGCTAGGTCAGGTTGGGCAGCTAACGGGTACG | PBM binding z-score | 0.717 |
| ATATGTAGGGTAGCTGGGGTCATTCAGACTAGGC | PBM binding z-score | 5.16 |
| CCTTACGCGTCAAGGTTATAGCACGGGTGGTACG | PBM binding z-score | 1.06 |
| CGAACTAGGTCATCCAGGACAGTGAGTACATTGA | PBM binding z-score | 3.02 |
| CGTCCAAGGTCAATGCTAGGTCAGTGATAGCATT | PBM binding z-score | 5.32 |
| AGTCAAAGTTCAGGACGAGGGAACGTAAAGCACG | PBM binding z-score | 2.87 |
| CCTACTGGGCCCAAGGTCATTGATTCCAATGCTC | PBM binding z-score | 2.82 |
| GCTCGGAGGACAAGATCAGAGCTTTGTCCGTAGA | PBM binding z-score | -0.639 |
| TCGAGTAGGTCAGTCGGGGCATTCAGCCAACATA | PBM binding z-score | 1.32 |
| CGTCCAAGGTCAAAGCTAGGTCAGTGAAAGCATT | PBM binding z-score | 6.47 |
| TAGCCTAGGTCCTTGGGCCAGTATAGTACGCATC | PBM binding z-score | -0.549 |
| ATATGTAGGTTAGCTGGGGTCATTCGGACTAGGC | PBM binding z-score | 5.36 |
| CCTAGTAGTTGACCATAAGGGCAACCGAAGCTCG | PBM binding z-score | 0.613 |
| GATCGGAGGACAAGGTCAGAGCTTTGTCCGTAGA | PBM binding z-score | 2.48 |
| CCAACTGGGCCATCAGGTCATTGATATCAACGTT | PBM binding z-score | 1.46 |
| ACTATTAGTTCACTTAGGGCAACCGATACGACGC | PBM binding z-score | 1.04 |
| GCTTGTAGACCAAGGTTAAGAAAGACTAAGCTAA | PBM binding z-score | 0.485 |
| GCGTCTGGGGCATCAGCAGGTTACCATAACTTAA | PBM binding z-score | 0.243 |
| CATAGTTGGTCAGGAGGTCACACACCGGATATGA | PBM binding z-score | 4.6 |
| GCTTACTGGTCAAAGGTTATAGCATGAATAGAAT | PBM binding z-score | 4.35 |
| GTACCAAGGTGAATGGGTCGTTGATGAGTAGGCG | PBM binding z-score | 1.08 |
| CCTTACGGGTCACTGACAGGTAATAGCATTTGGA | PBM binding z-score | 4.7 |
| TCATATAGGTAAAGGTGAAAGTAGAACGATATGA | PBM binding z-score | 2.2 |
| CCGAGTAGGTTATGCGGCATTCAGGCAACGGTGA | PBM binding z-score | 0.274 |
| CGTCCCAGGTCAGCAGGTCAGTGAAAGCGACGTG | PBM binding z-score | 3.25 |
| TCTTGTAGATCACAGGTTAAGAAAGCCGAAGCCT | PBM binding z-score | 0.811 |
| CCGACTGGGGCAAGGGTTACCATACTCAGTACGA | PBM binding z-score | 1.71 |
| GGAACGATGGCAAAGTTGATAGCATCTGTCGACG | PBM binding z-score | -0.104 |
| GCTGCCAGGTCAGGTTGGTCAGCTAACGGGTACG | PBM binding z-score | 1.5 |
| CGTCAAAGTTCAAGGTAACATAACAGAAAGCAGC | PBM binding z-score | 4.69 |
| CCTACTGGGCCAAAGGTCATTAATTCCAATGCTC | PBM binding z-score | 6.16 |
| TCTACTAGTTGATTAGGGCAACCGAAACAGCGGA | PBM binding z-score | 0.0714 |
| AATACAGGGTCAATAGGCCAGAGTAGGTACGAAT | PBM binding z-score | 4.89 |
| CGAACTAGGTCATCCAGGCCAGTGAATACATTGA | PBM binding z-score | 2.85 |
| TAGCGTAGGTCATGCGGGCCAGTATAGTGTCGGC | PBM binding z-score | 3.78 |
| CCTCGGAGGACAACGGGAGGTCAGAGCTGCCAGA | PBM binding z-score | 1.76 |
| CGTCCAAGGTCATAGGCGGTCAGTGAAGACAGAT | PBM binding z-score | 5.94 |
| ATCGAAAGGTCGTAGGTGAGTATACCCACCCGAA | PBM binding z-score | 5.28 |
| GCTACTAGGTCAACTGATGGTCAGCTAAAGCTCG | PBM binding z-score | 3.06 |
| TAGCCTAGGTCATTCAGGGGCCAGTACAGAAAGC | PBM binding z-score | 2.7 |
| TCTTATAGATCAAGCAGGTTAAGAAAGCCTGAGT | PBM binding z-score | 0.704 |
| ATCCCTAGGTAACCAAGTTCAGTGAATGCCGAAC | PBM binding z-score | 0.841 |
| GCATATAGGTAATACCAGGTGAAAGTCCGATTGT | PBM binding z-score | 0.369 |
| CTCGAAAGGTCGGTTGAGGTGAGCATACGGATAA | PBM binding z-score | 2.33 |
